Read-out: Decorin, DCN (gene 1634)
Assay: BSK_MyoF_Decorin: BioMAP Diversity Plus: MyoF Assay for Decorin Biomarker Activity (AID 2284265)
Settings: primary human lung fibroblasts
Active and inactive are the calls of the source. Rule for the calls: active = hit-call score of the fitted dose curve at least 0.9, where 1 is the maximum; inactive = score below 0.9.
Valid outcomes are listed here; reply with one: yes = active, no = inactive

Lab log entry: Cc1cc(C)c(O)c(C(C)(C)C)c1 — outcome as called in the assay?
yes

Lab log entry: O=C(O)C(F)(F)C(F)(F)C(F)(F)OC(F)(F)F — outcome as called in the assay?
no

Lab log entry: CCN(CC)c1ccc(C=O)c(O)c1 — outcome as called in the assay?
no

Lab log entry: C=C(C)C(=O)OCC(F)(F)C(F)(F)C(F)(F)C(F)F — outcome as called in the assay?
no

Lab log entry: Cc1cnccn1 — outcome as called in the assay?
no

Lab log entry: O=C(O)C(F)(F)C(F)(F)C(F)(F)C(F)(F)C(F)(F)C(F)(F)C(F)F — outcome as called in the assay?
no

Lab log entry: NC(=O)C(F)(F)C(F)(F)C(F)(F)F — outcome as called in the assay?
no

Reference for the values: PubChem BioAssay (EPA / NIEHS)
